- PROTOCOL DESCRIPTION: photoluminescence quantum yield (fraction); solvent given as SMILES
- MEASUREMENT CONTEXT: in ClCCl
MEASURED METRIC: photoluminescence quantum yield

These recorded examples may help you get a feel for the data.
COMPOUND	MEASUREMENT
COc1ccc(-c2cnc(-c3ccccc3)o2)cc1OC	0.19
CCCCC(CC)Cn1c2cc(C#N)ccc2c2ccc(C#Cc3ccc4ccc5c(C#Cc6ccc7c8ccc(C#N)cc8n(CC(CC)CCCC)c7c6)ccc6ccc3c4c65)cc21 (centres undefined)	0.38
Cn1cc(-c2nc3ccccc3nc2C#Cc2ccccc2)c2ccccc21	0.16

stdin: What does the data say about its photoluminescence quantum yield? Entry: CCCn1c2cccc3c2[c+]2c4c1cccc4n(CCC)c1cccc(c12)n3CCC
stdout: 0.16

stdin: Same question for CCCCn1c(-c2ccc(-c3nnc(-c4ccccc4)o3)cc2)nc(-c2ccccc2)c1-c1ccccc1 please.
stdout: 0.21

stdin: And N#C/C(=C\c1ccncc1)c1nc(-c2ccccc2)cs1 ?
stdout: 0.086

stdin: Try this compound next: CCCN(c1ccccc1)c1ccc2c(c1)C(CC)(CC)c1cc(/C=C/c3ccc(/C=C(\C#N)C(=O)O)s3)ccc1-2
stdout: 0.624

stdin: Could you do the same for CN(C)c1ccc2nc(/C=C/c3ccccc3)c(=O)oc2c1 , please?
stdout: 0.81

stdin: What do we get for CCCCCN(c1ccccc1)c1ccc2c(c1)C(CC)(CC)c1cc(/C=C/c3ccc(/C=C(\C#N)C(=O)O)s3)ccc1-2 ?
stdout: 0.005
